# parasite growth per record follows
# Test system: Toxoplasma gondii RH (in HFF)
# assay name: parasite growth relative to the screen mean (all compounds = 100%); higher = less inhibition of parasite growth
# study conditions: 5 µM; 72 h; oxygen 21 %
Counter-ions that a name gives are not always drawn.
Record the value in %, omitting the unit from your answer.

Reference set, count: 3
Ask | // lookup parasite growth for O[C@H]1[C@H](O)[C@@H](O)CN2CC[C@H](O)[C@H]12
Reply | 150

Ask | Which parasite growth value belongs to Cc1cc(C)cc(C(=O)OC2C[C@H]3CC[C@@H](C2)N3C)c1 (stereo partly specified) [Tropanyl-3,5-dimethylbenzoate] ?
Reply | 97.3

Ask | Param item = O=c1[nH]oc2c1CCNC2 [THIP hydrochloride] ; retrieve measured parasite growth.
Reply | 119

***
Ask | I have this compound here, CC(C)C[C@H]1C(=O)N2CCC[C@H]2[C@]2(O)O[C@](NC(=O)[C@@H]3C=C4c5cccc6[nH]c(Br)c(c56)C[C@H]4N(C)C3)(C(C)C)C(=O)N12 [Bromocriptine mesylate] , and I need its recorded parasite growth.
Reply | 13.6

Ask | Any idea what its parasite growth is? The compound is Cc1ncsc1CCCl [Chlormethiazole hydrochloride]
Reply | 60

Ask | Data request, read-out parasite growth, for Cc1[nH]c2ccc(Cl)cc2c1C1=CCNCC1
Reply | 129

Ask | Look at this compound and give its reported parasite growth. CC(=O)NCCc1c[nH]c2ccccc12
Reply | 146

Ask | Value lookup for parasite growth; key = O=C(Cc1ccc(Cl)c(Cl)c1)N1CCCCC1CN1CCCC1 (stereo unspecified)
Reply | 82.1

* * *

# System: Toxoplasma gondii RH (in HFF)
# assay name: parasite growth relative to the screen mean (all compounds = 100%); higher = less inhibition of parasite growth
# study conditions: 5 µM; 72 h; oxygen 21 %
Structures can show the parent of a compound that is named as a salt.
molecules and their reported parasite growth
Respond with the bare value in %.

Ask | Which parasite growth is listed for O=c1ccc2[nH]cc(C3=CCNCC3)c2[nH]1 ?
Reply | 65.2

Ask | Quick one: parasite growth of NC1(c2ccccc2Cl)CCCCC1=O (stereo not drawn) [Norketamine hydrochloride] ?
Reply | 86.9

Ask | # get_value(readout='parasite growth', item= O=C1Nc2ccccc2C2(CCN(CCc3ccc(C(F)(F)F)cc3)CC2)O1 )
Reply | 99.9

Ask | Can you look up the measured parasite growth of O=c1cccc2n1C[C@@H]1CNC[C@H]2C1 [(-)-Cytisine] for me?
Reply | 128

Ask | Entry CC(C)n1cnc2c(C(=O)N[C@H]3CN4CCC3CC4)cc(Cl)cc21 has what parasite growth?
Reply | 71.5

Ask | Quick one: parasite growth for COc1ccc2c(c1)c(CCN1CCOCC1)c(C)n2C(=O)c1cccc(Cl)c1Cl ?
Reply | 145

Ask | Which parasite growth is reported for this molecule? COc1cc2c(cc1O)C(CCc1ccc(Cl)cc1)N(C)CC2 (stereo not drawn)
Reply | 58.7

Ask | Please look up its parasite growth: CN(C)c1ccc(/C=C2\CCCN=C2c2cccnc2)cc1 [DMAB-anabaseine dihydrochloride]
Reply | 97.4

Ask | What measured parasite growth goes with NC(N)=Nc1ccc2[nH]c3c(c2c1)C[C@@]1(O)[C@H]2Cc4ccc(O)c5c4[C@@]1(CCN2CC1CC1)[C@H]3O5 [GNTI dihydrochloride] ?
Reply | 124

Ask | What value of parasite growth has been recorded for this entry: COc1cc2c(c(OC)c1OC)-c1ccc(OC)c(=O)cc1[C@@H](NC(C)=O)CC2
Reply | 115

Let us move to another entry and its parasite growth.
Ask | Would you mind telling me what parasite growth value was observed for CN(C(=O)Cc1ccc(Cl)c(Cl)c1)[C@H](CN1CCCC1)c1ccccc1 [ICI-199,441 hydrochloride] ?
Reply | 49.6

* * *

# System: Toxoplasma gondii RH (in HFF)
# assay name: parasite growth relative to the screen mean (all compounds = 100%); higher = less inhibition of parasite growth
# study conditions: 5 µM; 72 h; oxygen 21 %
Structures can show the parent of a compound that is named as a salt.
A collection of compounds and their measured parasite growth
Form field: result (number plus unit)

Ask | Look up parasite growth: C[C@H](N)Cn1ccc2cc(F)c(Cl)cc21 [Ro 60-0175 fumarate]
Reply | 115%

Ask | What does the data say about its parasite growth? Entry: CC(N)Cc1c[nH]c2ccc(OCc3cccs3)cc12 (stereo not drawn) [BW 723C86 hydrochloride]
Reply | 133%

Ask | Requested field: parasite growth. Item: C=CCN1CC[C@]2(C)c3cc(O)ccc3C[C@H]1C2C (single isomer, unassigned; (+))
Reply | 97.7%

More entries:
Ask | Fill blank: measured parasite growth of the compound Oc1cc2c(cc1O)[C@H]1c3ccccc3CN[C@@H]1CC2 (racemic) [Dihydrexidine hydrochloride] is ____.
Reply | 153%

Ask | Requested field: parasite growth. Item: COC(=O)/C=C/C(=O)N[C@@H]1CC[C@@]2(O)[C@H]3Cc4ccc(O)c5c4[C@@]2(CCN3CC2CC2)[C@H]1O5 [β-Funaltrexamine hydrochloride]
Reply | 74.5%

Ask | Which parasite growth is listed for CCNC(=O)[C@H]1O[C@@H](n2cnc3c(N)ncnc32)[C@H](O)[C@@H]1O ?
Reply | 93%

* * *

# Tested on: Toxoplasma gondii RH (in HFF)
# assay name: parasite growth relative to the screen mean (all compounds = 100%); higher = less inhibition of parasite growth
# study conditions: 5 µM; 72 h; oxygen 21 %
Structures can show the parent of a compound that is named as a salt.
Examples of compounds with documented parasite growth follow.

Ask | Data request, read-out parasite growth, for COc1ccc(C[C@H]2NC[C@H](O)[C@H]2OC(C)=O)cc1
Reply | < 0%

Ask | Form field: reported parasite growth of O=C(CCCN1CCC2(CC1)C(=O)N(Cc1cccc(F)c1)CN2c1ccccc1)c1ccc(F)cc1 [3'-Fluorobenzylspiperone maleate]
Reply | < 0%

Proceed to the following item.
Ask | # query: parasite growth of entry COc1ccc(CCN2CCC(Nc3nc4ccccc4n3Cc3ccc(F)cc3)CC2)cc1
Reply | < 0%

* * *

# Tested on: Toxoplasma gondii RH (in HFF)
# assay name: parasite growth relative to the screen mean (all compounds = 100%); higher = less inhibition of parasite growth
# study conditions: 5 µM; 72 h; oxygen 21 %
Structures can show the parent of a compound that is named as a salt.
measurement type: parasite growth

Ask | Please look up its parasite growth: CN1C[C@H](CNC(=O)OCc2ccccc2)C[C@@H]2c3cccc4c3c(cn4C)C[C@H]21 [Metergoline]
Reply | 71%

Ask | What parasite growth value was documented for this compound, NCC(CS(=O)(=O)O)c1ccc(Cl)cc1 (stereo not drawn) [Saclofen] ?
Reply | 114%

Ask | Need parasite growth, item CCCN1CCC[C@@H]2Cc3n[nH]cc3C[C@H]21 [(-)-Quinpirole hydrochloride]
Reply | 144%

Ask | I would be grateful if you could share the reported parasite growth for COC(=O)[C@@H](N)CCCNC(=N)N[N+](=O)[O-] [L-NAME hydrochloride] .
Reply | 81.5%

Ask | # parasite growth lookup, item CC(C)(C)NCC(O)COc1cccc2[nH]c(C#N)cc12 (stereo not drawn) [Cyanopindolol hemifumarate]
Reply | 130%

Ask | Quick one: parasite growth for O=C(N[C@H]1CN2CCC1CC2)c1ccc(Cl)cc1 ?
Reply | 146%

Ask | For CC1=NN=C(c2ccc(N)cc2)c2cc3c(cc2C1)OCO3 , what is its reported parasite growth?
Reply | 47.2%

Ask | Using the record for CCN(CC)CCO[C@H]1CC[C@@]2(C)C(=CC[C@@H]3[C@@H]2CC[C@]2(C)C(=O)CC[C@@H]32)C1 , report its parasite growth.
Reply | 79.6%

* * *

# Tested on: Toxoplasma gondii RH (in HFF)
# assay name: parasite growth relative to the screen mean (all compounds = 100%); higher = less inhibition of parasite growth
# study conditions: 5 µM; 72 h; oxygen 21 %
Structures can show the parent of a compound that is named as a salt.
Entries and their parasite growth values follow.

Ask | // lookup parasite growth for CN(C(=O)Cc1ccccc1)C(CN1CCCC1)c1ccccc1 (configuration not stated) [N-MPPP Hydrochloride]
Reply | 112%

Ask | Query (compound): CN1C[C@H](C(=O)N[C@]2(C)O[C@@]3(O)[C@@H]4CCCN4C(=O)[C@H](Cc4ccccc4)N3C2=O)C[C@@H]2c3cccc4[nH]cc(c34)C[C@H]21 [Dihydroergotamine mesylate] ; field requested: parasite growth
Reply | 39.3%

Ask | Fill in the blank: the reported parasite growth of c1ccc2sc(C3(N4CCCCC4)CCCCC3)cc2c1 [BTCP maleate] is ____.
Reply | 64.9%

Ask | What value of measured parasite growth is listed for CCCN(C/C=C/I)C1CCc2ccc(O)cc2C1 (configuration not stated) [7-Hydroxy-PIPAT maleate] ?
Reply | 181%

Ask | Form field: reported parasite growth of OC1CCCCC1N1CCC(c2ccccc2)CC1 (racemic) [(±)-Vesamicol hydrochloride]
Reply | 100%

Ask | Recorded parasite growth of c1ccc2c(c1)[I+]c1ccccc1-2 [Diphenyleneiodonium chloride] , please.
Reply | < 0%

With those in mind, consider the next compound.
Ask | Look up parasite growth for this compound: COc1ccc(CNC(=O)/C=C/c2ccc3[nH]cc(CCN(C)C)c3c2)cc1
Reply | 98.3%
